Quick reference for pIC50 (FF) among some compounds
biological target: UniProt:P51449; assay: RORγ Gal4 Reporter Gene Assay in 293T cells (firefly and renilla luciferase); assay type: cell-based, human

Field: example entries. Status: answers known.
- chemical-structure: "Cc1c(C(=O)NC2CCOCC2)cc(-c2ccc(S(=O)(=O)NC(C)(C)C)c(C(C)(C)C)c2)n1CC1CCC1"
  pIC50 (FF): "6.2/7.1/7.2"
- chemical-structure: "Cc1c(C(=O)NC2(C)CCOCC2)cc(-c2ccc(S(=O)(=O)NC(C)(C)C)c(C(C)(C)C)c2)n1CC1CCCCC1"
  pIC50 (FF): "6.2/7.0/7.2"
- chemical-structure: "Cc1c(C(=O)NC2CCOCC2)cc(-c2ccc(S(=O)(=O)NC(C)(C)C)c(C(C)(C)C)c2)n1CC1CCCC1"
  pIC50 (FF): "6.2/7.3/7.4"

# input Tell me the measured pIC50 (FF) of Cc1c(C(=O)NCCCCCN2CCOCC2)cc(-c2cc(C(C)(C)C)cc(C(C)(C)C)c2)n1CC1CCCCC1 , please.
# output 5.31/<4.7<4.7

# input Tell me the measured pIC50 (FF) of Cc1c(C(=O)NCCN2CCOCC2)cc(-c2cc(C(C)(C)C)c3c(c2)C2(CCO3)CC2)n1CC1CCCCC1 , please.
# output 6.3/6.9/7.0

# input Tell me the measured pIC50 (FF) of COCCNC(=O)c1cc(-c2cc(C(C)(C)C)c(O)c(C(C)(C)C)c2)n(CC2CCCCC2)c1C , please.
# output 6.5/6.5/6.5

# input Tell me the measured pIC50 (FF) of Cc1c(C(=O)N2CCOCC2)cc(-c2ccc(S(=O)(=O)NC(C)(C)C)c(C(F)(F)F)c2)n1CC1CCCCC1 , please.
# output 6.3/6.8/6.9

---

Target: RORγ ligand binding domain (LBD) (Homo sapiens, UniProt P51449)
Construct: made in house; host or cells: E. coli BL-21 (BL3), vector pDEST15
Sequence (P51449 269-508 limits assumed): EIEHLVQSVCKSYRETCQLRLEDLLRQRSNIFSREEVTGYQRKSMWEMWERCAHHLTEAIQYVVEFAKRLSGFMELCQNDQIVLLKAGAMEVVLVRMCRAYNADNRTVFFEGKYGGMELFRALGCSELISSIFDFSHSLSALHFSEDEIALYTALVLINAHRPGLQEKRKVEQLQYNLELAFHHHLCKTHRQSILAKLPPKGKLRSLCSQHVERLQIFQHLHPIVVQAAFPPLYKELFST
Experiment: TR-FRET Activity Assay (ligand sensing, RORγ-LBD / coactivator peptide interaction, LANCE)
Type: biochemical
Conditions: first value of the cell FRET/FF/REN; TR-FRET activity assay; read-out: pIC50 (FRET) (converted)
Class (required): determined from IC50; valid ranges are low end = under 500 nM, middle = from 500 nM up to 1000 nM, high end = 1000 nM and over

For orientation, consider the following solved cases.
- molecule: "Cc1c(C(=O)NCCS(C)(=O)=O)cc(-c2cc(C(C)(C)O)cc(C3(C)CC3)c2)n1CC1CCCCC1"
  assigned-class: "high end"
- molecule: "CC(=O)NC(C)(C)CNC(=O)c1cc(-c2cc(C(C)(C)C)c3c(c2)C2(CCO3)CC2)n(CC2CCCCC2)c1C"
  assigned-class: "low end"
- molecule: "Cc1c(C(=O)NC2CC2)cc(-c2ccc(S(=O)(=O)NC(C)(C)C)c(C(C)(C)C)c2)n1CC1CCCCC1"
  assigned-class: "low end"
- molecule: "Cc1c(C(=O)NC2CCOCC2)cc(-c2ccc(S(=O)(=O)NC(C)(C)C)c3ccccc23)n1CC1CCCCC1"
  assigned-class: "middle"
- molecule: "Cc1c(C(=O)N[C@H]2C[C@H](C(=O)O)C2)cc(-c2cc(NCC(C)(C)C)nc(C(C)(C)C)c2)n1CC1CCCCC1"
  assigned-class: "high end"

# input Which bin, given its IC50, does CCc1cc(-c2cc(C(N)=O)c(C)n2CC2CCCCC2)cc2c1OCC2(C)C occupy?
# output high end

# input Which bin, given its IC50, does Cc1c(C(=O)NCCCC(=O)O)cc(-c2cc(C(C)(C)C)cc(C(C)(C)C)c2)n1CC1CCCCC1 occupy?
# output high end

# input Which bin, given its IC50, does Cc1c(C(=O)NC2CCOCC2)cc(-c2cc(C(=O)NC(C)(C)C)cc3ccccc23)n1CC1CCCCC1 occupy?
# output middle

# input Which bin, given its IC50, does Cc1c(C(=O)N[C@H]2CC[C@@H](C(=O)O)CC2)cc(-c2cc(C(C)(C)C)c3c(c2)C2(CCO3)CC2)n1CC1CCCCC1 occupy?
# output high end

# input Which bin, given its IC50, does Cc1c(C(=O)NCCC(C)(C)C(=O)O)cc(-c2ccc(S(=O)(=O)NC(C)(C)C)c(C(C)(C)C)c2)n1CC1CCCCC1 occupy?
# output high end

# input Which bin, given its IC50, does Cc1c(C(=O)N2CCC(C)(C(=O)O)CC2)cc(-c2ccc(S(=O)(=O)NC(C)(C)C)c(C(F)(F)F)c2)n1CC1CCCCC1 occupy?
# output middle

# input Which bin, given its IC50, does Cc1c(C(=O)NCC(C)(C)NC(=O)C(C)O)cc(-c2cc(C(C)(C)C)cc(C3(C)CC3)c2)n1CC1CCCCC1 (centres unmarked) occupy?
# output low end

# input Which bin, given its IC50, does Cc1c(C(=O)NC2COC2)cc(-c2ccc(C(=O)N(C)CC(C)(C)C)c(C(C)(C)C)c2)n1CC1CCCCC1 occupy?
# output middle

# input Which bin, given its IC50, does Cc1c(C(=O)NC2COC2)cc(-c2cc(CN3CCOCC3)cc(C(C)(C)C)c2)n1CC1CCCCC1 occupy?
# output high end

---

target: RORγ ligand binding domain (LBD) (Homo sapiens, UniProt P51449); construct: made in house; host or cells: E. coli BL-21 (BL3), vector pDEST15; test: TR-FRET Activity Assay (ligand sensing, RORγ-LBD / coactivator peptide interaction, LANCE); assay type: biochemical
measurement-kind: pIC50
Just so you know, pIC50 here is -log10 of the concentration in molar units; reply with that number alone.

Field: example entries. Status: answers known.
- chemical-structure: "COC(C)(C)c1cc(-c2cc(C(=O)NC3COC3)c(C)n2CC2CCCCC2)cc(C(C)(C)C)c1"
  measurement-kind: "pIC50"
  measurement: 6.10
- chemical-structure: "Cc1c(C(=O)NC2(C)COC2)cc(-c2cc(C(C)(C)C)c3c(c2)C2(CCO3)CC2)n1CC1CCCCC1"
  measurement-kind: "pIC50"
  measurement: 6.20
- chemical-structure: "Cc1c(C(=O)NC2(CO)CC2)cc(-c2cc(C(C)(C)C)cc(C(C)(C)C)c2)n1CC1CCCCC1"
  measurement-kind: "pIC50"
  measurement: 6.20

// next entry
# input Tell me the measured pIC50 of Cc1c(C(=O)NC2CCOCC2)cc(-c2ccc(-c3nnc(C(C)(C)C)o3)c(C(C)(C)C)c2)n1CC1CCCCC1 , please.
# output 6.30

---

Quick reference for IC50 among some compounds
Biological target: RORγ ligand binding domain (LBD) (Homo sapiens)
Construct: made in house; host or cells: E. coli BL-21 (BL3), vector pDEST15
Sequence (P51449 269-508 limits assumed): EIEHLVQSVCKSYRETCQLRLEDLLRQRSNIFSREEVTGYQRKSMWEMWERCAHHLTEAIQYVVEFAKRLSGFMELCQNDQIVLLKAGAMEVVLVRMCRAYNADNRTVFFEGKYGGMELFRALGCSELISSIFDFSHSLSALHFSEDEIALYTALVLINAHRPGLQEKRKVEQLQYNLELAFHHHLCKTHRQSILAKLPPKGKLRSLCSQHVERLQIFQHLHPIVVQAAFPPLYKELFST
Assay: TR-FRET Activity Assay (ligand sensing, RORγ-LBD / coactivator peptide interaction, LANCE)
Type: biochemical
Settings: first value of the cell FRET/FF/REN; TR-FRET activity assay; read-out: pIC50 (FRET) (converted)
Respond with the bare value in nM.

- compound: "Cc1c(C(=O)NC23CCC(C(=O)O)(CC2)CC3)cc(-c2cc(C(C)(C)O)cc(C3(C)CC3)c2)n1CC1CCCCC1 [17/302]"
  IC50 / nM: 1580
- compound: "Cc1c(C(=O)N[C@H]2C[C@H](C(=O)O)C2)cc(-c2cc(C(C)(C)O)cc3ccccc23)n1CC1CCCCC1 [17/187]"
  IC50 / nM: 15800
- compound: "Cc1c(C(=O)NCCCCO)cc(-c2cc(C(C)(C)C)cc(C(C)(C)C)c2)n1CC1CCCCC1 [1/66]"
  IC50 / nM: 398
- compound: "Cc1c(C(=O)NC2COC2)cc(-c2cc(C3(C)CC3)cc(C3(C)CC3)c2)n1CC1CCCCC1 [1/80]"
  IC50 / nM: 200
- compound: "Cc1c(C(=O)N[C@H]2C[C@H](C(=O)O)C2)cc(-c2cc(C(C)(C)C)c3c(c2)C2(CCO3)CC2)n1CC1CCCCC1 [17/55]"
  IC50 / nM: 2000

# input Tell me the measured IC50 of CCC(C)(C)NS(=O)(=O)c1ccc(-c2cc(C(=O)NC3CCOCC3)c(C)n2CC2CCCC2)cc1C(F)(F)F [17/216] , please.
# output 200

# input Tell me the measured IC50 of Cc1c(C(=O)NC2CC(C)(O)C2)cc(-c2cc(C(C)(C)C)c3c(c2)C2(CCO3)CC2)n1CC1CCCCC1 (stereo not shown) [17/22] , please.
# output 1000
